TARGET_SYSTEM: Neuropilin-1 (Homo sapiens) (UniProt O14786)
Sequence (O14786 whole entry, looked up): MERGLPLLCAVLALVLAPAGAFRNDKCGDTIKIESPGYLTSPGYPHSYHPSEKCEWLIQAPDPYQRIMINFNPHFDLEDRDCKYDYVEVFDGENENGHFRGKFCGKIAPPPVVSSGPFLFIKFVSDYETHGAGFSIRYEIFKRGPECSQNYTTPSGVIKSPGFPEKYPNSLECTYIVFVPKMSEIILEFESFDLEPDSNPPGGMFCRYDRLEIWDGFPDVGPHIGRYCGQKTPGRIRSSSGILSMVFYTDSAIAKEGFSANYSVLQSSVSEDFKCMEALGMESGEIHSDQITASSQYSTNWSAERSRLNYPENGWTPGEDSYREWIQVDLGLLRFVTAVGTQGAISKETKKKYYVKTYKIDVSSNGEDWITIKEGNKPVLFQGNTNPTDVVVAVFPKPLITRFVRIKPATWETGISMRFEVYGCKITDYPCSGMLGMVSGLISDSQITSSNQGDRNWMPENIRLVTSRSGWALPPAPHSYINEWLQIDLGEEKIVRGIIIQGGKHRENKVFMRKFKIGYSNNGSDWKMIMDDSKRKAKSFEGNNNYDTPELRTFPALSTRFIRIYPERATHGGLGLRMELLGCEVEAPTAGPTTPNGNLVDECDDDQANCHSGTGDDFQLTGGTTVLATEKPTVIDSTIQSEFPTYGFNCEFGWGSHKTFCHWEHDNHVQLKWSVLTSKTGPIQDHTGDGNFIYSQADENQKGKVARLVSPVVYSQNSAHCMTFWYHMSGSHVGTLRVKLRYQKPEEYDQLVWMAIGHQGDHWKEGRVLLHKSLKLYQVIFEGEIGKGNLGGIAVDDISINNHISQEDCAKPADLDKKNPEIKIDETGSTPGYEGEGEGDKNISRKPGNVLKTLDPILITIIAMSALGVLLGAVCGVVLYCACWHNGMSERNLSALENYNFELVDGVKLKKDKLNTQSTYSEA
ASSAY_NAME: NRP-1 b1b2 CendR peptide binding inhibitors, dose response, biochemical, FP and AlphaScreen panel (AID 651650)
MEASUREMENT_CONDITIONS: NRP-1 b1b2 / RPARPAR peptide binding, FP or AlphaScreen; AlphaScreen, run 1; individual panel run IC50
pIC50: −log10 of the molar value.
PARAMETER_MEASURED: pIC50

Guide cases for pIC50, answers given:
COc1ccc(C(O)c2nc(-c3ccc4ccccc4c3)cs2)cc1 (centres undefined); < 4.00
O=Cc1ccc(-c2ccccc2C(=O)O)o1; < 4.00
C=C1CCN(C(C(=O)OC)C(C)C)S(=O)(=O)c2ccc(F)cc21 (centres undefined); < 4.00
CCN1C(=O)C(=O)c2cc(C)ccc21; < 4.00
CC1(C(=O)NCc2cccc3ccccc23)CCN1Cc1cccc2c1OCO2 (centres undefined); < 4.00

// input: 4 compounds below; output: pIC50 for each
1. O=C(NCCCN1CCCCCC1)c1ccc(CS(=O)(=O)Cc2ccccc2F)o1
2. CCCN=C1N/C(=C\c2ccco2)C(=O)N1c1ccccc1
3. COc1ccc([C@H]2/C=C\CN(S(C)(=O)=O)[C@@H](C)C(=O)N2Cc2ccc(F)cc2)cc1
4. CC(C)(C)C(=O)COC(=O)c1cc(-c2ccncc2)nc2ccccc12

< 4.00
< 4.00
< 4.00
< 4.00
